# Tgt: T1, native human IL-33 from human lung fibroblast (HFL-1) lysate (human, UniProt O95760 1-270, limits assumed)
# T1 sequence (looked up): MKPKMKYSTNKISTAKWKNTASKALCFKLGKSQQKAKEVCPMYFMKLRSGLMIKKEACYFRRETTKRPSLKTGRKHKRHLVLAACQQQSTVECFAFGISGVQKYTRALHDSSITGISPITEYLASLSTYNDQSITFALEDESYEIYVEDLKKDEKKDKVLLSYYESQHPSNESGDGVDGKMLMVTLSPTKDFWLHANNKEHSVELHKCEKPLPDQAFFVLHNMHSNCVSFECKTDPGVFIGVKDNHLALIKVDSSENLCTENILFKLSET
# Test name: cell-based or functional assay
Property name: % inhibition 10 nM Ab, HEK293 ST2 NFkB (%)

# Binder, Recorded number
measured = [
    ("rat 30B11 (30B11 hybridoma) (antibody, V domains shown) VH: QVKLLQSGAALVKPGASVKMSCATSGFSFTDYWVSWVKQSHGKGLEWIGEIYPNSGADNFNENFKGKATLTVDKSTSTAYMELSRLTSEDSAIYYCTRGPYYYSTQIIFAYWGQGTLVTVSS VL: NIVMTQSPKSMSISVGDRVTMNCKASQNVGNNLAWYQQKPGQSPKLLIYYASNRYTGVPDRFTGGGYGTDFTLTINSVQAEDAAFYYCQRIYNSPPTFGGGTKVELR", 113),
    ("30B11 chimera/hu J (antibody, human IgG1, kappa, V domains shown, also called 30B11 hu Jseg) VH: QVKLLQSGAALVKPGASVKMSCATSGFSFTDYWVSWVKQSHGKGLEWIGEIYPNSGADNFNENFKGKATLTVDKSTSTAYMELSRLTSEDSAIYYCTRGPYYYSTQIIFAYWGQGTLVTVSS VL: NIVMTQSPKSMSISVGDRVTMNCKASQNVGNNLAWYQQKPGQSPKLLIYYASNRYTGVPDRFTGGGYGTDFTLTINSVQAEDAAFYYCQRIYNSPPTFGGGTKVEIKR", 110),
    ("12F9 chimera (antibody, human IgG1, kappa, V domains shown, also called chimeric 12F9) VH: EVQLVESGGDLVQPGRSLKLSCVTSGFIFKNYWMTWIRQVPGKGLEWVASITNTGGATYYPDSVKGRFTISRDNSENTLYLQMNSLRSEDTATYYCARDRRYNSGSPFAYWGQGTLVTVSS VL: DIQLTQSPSTLAASLGERVTISCRASQSISNSLIWFQQKPDGTIKRLIYSSSTLESGVPSRFSGSGSGTDYSLSISSLESEDFAMYYCLQYATYPWTFGGGTKLELRR", 104),
    ("14D8 chimera/hu J (antibody, human IgG1, kappa, V domains shown, also called 14D8 huJseg) VH: EVQLVDSGGDQVQPGRSLKLSCVASGFIFKNYWMTWIRQVPGKGLEWIASITNSGGNTYYPDSVKGRFTISRDNAKDTLYLQMNSLRSEDTATYYCARDRRYNSGSPFAYWGQGTLVTVSS VL: DIQLTQSPSTLPASLGERVTISCRTSQSINNNLCWYQQKPDGTVKRLIYSTSTLESGVPSRFSGSGSGTDYSLSISSLESQDFAMYYCLQYATYPWTFGQGTKVEIKR", 107),
    ("rat 9B3 (9B3 hybridoma) (antibody, V domains shown) VH: EVQLVETGGGLVQPGRSLKLSCVASGFTFSNYWMYWIRQAPGMGLEWVSSINNDGGNTYYLDSVKGRFTISRNNAENTVYLQMNSLRSEDTATYYCAKGHYSYSSYSFSYWGQGTLVTVSS VL: DIQMTQSPSVLSASVGDRVTLSCKASHNINKHLDWCQQKVGEAPKLLIYFTNNLQTGIPSRFSGSGSGTDYTLTISSLQPEDVATYFCFQYNSGWTFGGGTKLELK", 108),
    ("rat 30A1 (30A1 hybridoma) (antibody, V domains shown) VH: QVNLLQSGATLVKPGASMKMSCKASGYSFTDYWVSWVKQSHGKSLEWIGEIYPNSGANNFNKEFKDKATLTVDKSTSTAYMELTRLTSEDSAVYYCTRGPYYYSSQIIFAYWGQGTLVTVSS VL: IIVMTQSPKSMSISVGDRVTMNCKASQNVGNNIAWYRQKPGQSPELLIYYASNRYTGVPDRFTGGGYGTDFTLTINSVQAEDAAFYYCQRIYNSPPTFGGGTKVELK", 108),
    ("rat 7E8 (7E8 hybridoma) (antibody, V domains shown) VH: EVQLVETGGGLVQPGRSLKLSCKTSGFTFSSYWMYWIRQAPGKGLEWVSSITPNGGNTYYPDSVKGRFTISRDNAENTIYLQMSSLRSEDTATYFCAKGHYYYTSYSLGYWGQGSLVTVSS VL: EIQMTQSPSVLSASVGDRVTLSCKASQNINKHLDWYQQKLGEAPKLLIYFTNNLQTGIPSRFSGSGSGTDCTLTINSLQPGDVATYFCFQYNNGWTFGGGTKLELD", 113),
]

The values you see were collected from patent US20180037644A1.
